- assay method text: Dissociation constant, pKa of the compound by potentiometric titration method

- query smiles: "Cc1cnc(Nc2ccc(N3CCOCC3)cc2)nc1-c1cnn(CCC#N)c1"
  pKa: 4.2

###

pIC50: −log10 of the molar value.
Recorded below: pIC50, system Vascular endothelial growth factor receptor 2 (Homo sapiens, UniProt P35968).

- query smiles: "Cc1cc(Nc2ncc(C)c(N3CC4CCCC(C3)N4CC#N)n2)sn1"
  pIC50: 5.80
- query smiles: "Cc1cnc(Nc2cnn(C)c2)nc1N1CC2CCCC(C1)N2CC#N"
  pIC50: 5.13
- query smiles: "Cc1cc(Nc2ncc(C)c(N3CC4CCCC(C3)N4CCC#N)n2)sn1"
  pIC50: 6.96

###

// IC50 collected for Non-receptor tyrosine-protein kinase TYK2 (Homo sapiens, UniProt P29597)
measured property: IC50 (nM)

- query smiles: "Cc1cnc(Nc2cnn(C)c2)nc1-c1cnn([C@H](CC#N)C2CCCC2)c1"
  measured property: "IC50"
  recorded value: 0.98
- query smiles: "Cn1cc(Nc2nccc(-c3cnn(CCC#N)c3)n2)cn1"
  measured property: "IC50"
  recorded value: 49
- query smiles: "Cc1cnc(Nc2ccc(N3CCOCC3)cc2)nc1-c1cnn(CCC#N)c1"
  measured property: "IC50"
  recorded value: 2
- query smiles: "Cc1cc(Nc2ncc(Cl)c(-c3cnn(CCC#N)c3)n2)sn1"
  measured property: "IC50"
  recorded value: 1.5
- query smiles: "Cc1cnc(Nc2cnn(C)c2)nc1N1CC2CCCC(C1)N2CCC#N"
  measured property: "IC50"
  recorded value: 3.4
- query smiles: "Cc1cc(Nc2ncc(C)c(N3CC(CC#N)(N4CCN(C)CC4)C3)n2)sn1"
  measured property: "IC50"
  recorded value: 2.9

###

Endpoint: IC50. System: Tyrosine-protein kinase JAK1 (Homo sapiens). Items follow.
Sequence (P23458 whole entry): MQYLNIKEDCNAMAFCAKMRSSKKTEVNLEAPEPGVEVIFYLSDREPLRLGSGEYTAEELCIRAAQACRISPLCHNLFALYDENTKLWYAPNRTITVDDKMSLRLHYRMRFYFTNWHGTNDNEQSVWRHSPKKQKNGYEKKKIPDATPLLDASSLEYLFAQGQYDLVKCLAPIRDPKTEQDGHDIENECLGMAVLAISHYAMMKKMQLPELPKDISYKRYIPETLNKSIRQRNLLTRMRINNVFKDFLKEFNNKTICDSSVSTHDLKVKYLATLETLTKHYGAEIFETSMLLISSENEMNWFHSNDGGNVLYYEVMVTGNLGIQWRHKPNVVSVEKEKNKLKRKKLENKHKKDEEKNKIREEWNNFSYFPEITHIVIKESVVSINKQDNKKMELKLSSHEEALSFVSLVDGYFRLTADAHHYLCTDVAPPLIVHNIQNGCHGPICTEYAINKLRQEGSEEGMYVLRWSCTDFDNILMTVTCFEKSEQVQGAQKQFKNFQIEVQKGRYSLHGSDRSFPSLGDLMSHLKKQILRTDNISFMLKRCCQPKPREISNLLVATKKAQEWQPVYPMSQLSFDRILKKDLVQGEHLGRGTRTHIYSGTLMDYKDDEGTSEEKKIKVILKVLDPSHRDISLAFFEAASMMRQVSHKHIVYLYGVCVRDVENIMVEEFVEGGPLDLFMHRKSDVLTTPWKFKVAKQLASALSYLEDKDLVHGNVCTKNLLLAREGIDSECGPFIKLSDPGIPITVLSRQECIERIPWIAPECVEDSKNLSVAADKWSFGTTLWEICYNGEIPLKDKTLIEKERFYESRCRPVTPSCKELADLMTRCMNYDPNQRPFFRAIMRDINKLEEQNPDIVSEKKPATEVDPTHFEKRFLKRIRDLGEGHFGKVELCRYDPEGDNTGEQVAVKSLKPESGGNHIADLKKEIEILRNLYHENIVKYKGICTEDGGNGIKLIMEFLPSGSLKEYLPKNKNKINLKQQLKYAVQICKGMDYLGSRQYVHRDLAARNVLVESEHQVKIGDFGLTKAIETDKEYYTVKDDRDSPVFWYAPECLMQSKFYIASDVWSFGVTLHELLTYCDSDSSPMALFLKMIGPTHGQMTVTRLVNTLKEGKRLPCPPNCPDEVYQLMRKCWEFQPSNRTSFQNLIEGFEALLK
measured property: IC50 (nM)

- query smiles: "Cc1cnc(NC2CCOCC2)nc1-c1cnn(CCC#N)c1"
  measured property: "IC50"
  recorded value: 50000
- query smiles: "Cc1cnc(Nc2cnn(C)c2)nc1-c1cnn([C@H](CC#N)C2CCCC2)c1"
  measured property: "IC50"
  recorded value: 0.99
- query smiles: "Cc1cnc(Nc2ccc(N3CCOCC3)cc2)nc1-c1cnn(CCC#N)c1"
  measured property: "IC50"
  recorded value: 15

###

// Tyrosine-protein kinase JAK2 (Homo sapiens) pIC50 records
pIC50: −log10 of the molar value.
measured property: pIC50

- query smiles: "Cc1cc(Nc2ncc(C)c(N3CC(CCC#N)C3)n2)sn1"
  recorded value: 7.89
- query smiles: "Cc1cc(Nc2ncc(C)c(N3CCN(CC#N)CC3)n2)sn1"
  recorded value: 8.47
- query smiles: "Cc1cc(Nc2ncc(C)c(N3CCN(CC#N)[C@@H](C)C3)n2)sn1"
  recorded value: 8.82
- query smiles: "Cc1cnc(Nc2cnn(C)c2)nc1N1CC2CCCC(C1)N2CC#N"
  recorded value: 7.21
- query smiles: "Cc1cnc(Nc2cnn(C)c2)nc1-c1cnn([C@H](CC#N)C2CCCC2)c1"
  recorded value: 9.01
- query smiles: "Cc1cc(Nc2ncc(C)c(-c3cnn(CCC#N)c3)n2)sn1"
  recorded value: 8.70
- query smiles: "Cn1cc(Nc2nccc(-c3cnn(CCC#N)c3)n2)cn1"
  recorded value: 7.57
- query smiles: "Cc1cnc(Nc2cnn(C)c2)nc1N1CC2CCCC(C1)N2CCC#N"
  recorded value: 8.47
